test system: SK-BR-3; test: normalised viability (% of control), CellTiter-Blue; higher = more viable cells (100 = DMSO, 0 = benzethonium chloride kill control); settings: incubation time: 72 h
normalised viability overview
measured_endpoint: normalised viability (%)

{"compound": "Cc1cc(Nc2cc(CN3CCOCC3)c3nc(C)c(Cc4ccc(Cl)cc4F)n3n2)n[nH]1 (1 nM)", "study_target": "SK-BR-3", "experimental_result": 104}
{"compound": "O=C(Nc1ccncc1)C(=O)c1cn(Cc2ccc(Cl)cc2)c2ccccc12 [Indibulin] (1 nM)", "study_target": "SK-BR-3", "experimental_result": 102}
{"compound": "O=C(Nc1cccnc1)N1CCC(Cc2cccc(Oc3ccc(C(F)(F)F)cn3)c2)CC1 [PF-3845] (1 nM)", "study_target": "SK-BR-3", "experimental_result": 123}
{"compound": "COC(=O)c1ccc2c(c1)NC(=O)/C2=C(\\Nc1ccc(N(C)C(=O)CN2CCN(C)CC2)cc1)c1ccccc1 [BIBF 1120] (1 nM)", "study_target": "SK-BR-3", "experimental_result": 93.3}
{"compound": "N#Cc1ccc(COC[C@H]2O[C@@H](n3c(NCc4ccc(Cl)c(Cl)c4)nc4c(N)ncnc43)[C@H](O)[C@@H]2O)cc1 (1 nM)", "study_target": "SK-BR-3", "experimental_result": 91.4}

----------
test system: HCC1599; assay: normalised response (% of control), CellTiter-Glo; higher = more viable cells (100 = DMSO, 0 = benzethonium chloride kill control); settings: incubation time: 72 h
normalised response overview
measured_endpoint: normalised response (%)

{"compound": "C=C1C[C@@H]2[C@H](CC[C@]3(C)C(=O)CC[C@@H]23)[C@@]2(C)C=CC(=O)C=C12 [Exemestane] (1 nM)", "measured_endpoint": "normalised response", "experimental_result": 112}
{"compound": "Cc1[nH]c2ccccc2c1CCNCc1ccc(/C=C/C(=O)NO)cc1 [Panobinostat] (0.1 nM)", "measured_endpoint": "normalised response", "experimental_result": 98.6}
{"compound": "C=C1C[C@@H]2[C@H](CC[C@]3(C)C(=O)CC[C@@H]23)[C@@]2(C)C=CC(=O)C=C12 [Exemestane] (1000 nM)", "measured_endpoint": "normalised response", "experimental_result": 115}
{"compound": "Nc1cc(C(F)(F)F)c(-c2cc(N3CCOCC3)nc(N3CCOCC3)n2)cn1 [Buparlisib] (1000 nM)", "measured_endpoint": "normalised response", "experimental_result": 102}
{"compound": "S=P(N1CC1)(N1CC1)N1CC1 [Thio-TEPA] (50 nM)", "measured_endpoint": "normalised response", "experimental_result": 101}
{"compound": "O=C(Nc1cccnc1)N1CCC(Cc2cccc(Oc3ccc(C(F)(F)F)cn3)c2)CC1 [PF-3845] (1000 nM)", "measured_endpoint": "normalised response", "experimental_result": 104}
{"compound": "CO[C@H]1C[C@@H]2CC[C@@H](C)[C@@](O)(O2)C(=O)C(=O)N2CCCC[C@H]2C(=O)O[C@H]([C@H](C)C[C@@H]2CC[C@@H](OP(C)(C)=O)[C@H](OC)C2)CC(=O)[C@H](C)/C=C(\\C)[C@@H](O)[C@@H](OC)C(=O)[C@H](C)C[C@H](C)/C=C/C=C/C=C/1C [Ridaforolimus] (0.1 nM)", "measured_endpoint": "normalised response", "experimental_result": 96.5}
{"compound": "CN(C)c1nc(N(C)C)nc(N(C)C)n1 [Altretamine] (1 nM)", "measured_endpoint": "normalised response", "experimental_result": 90.2}
{"compound": "Oc1ccc2c(c1)CC[C@H](c1ccccc1)[C@@H]2c1ccc(OCCN2CCCC2)cc1 [Lasofoxifene] (0.1 nM)", "measured_endpoint": "normalised response", "experimental_result": 104}
{"compound": "CCc1c2c(nc3ccc(OC(=O)N4CCC(N5CCCCC5)CC4)cc13)-c1cc3c(c(=O)n1C2)COC(=O)[C@]3(O)CC [Irinotecan] (1 nM)", "measured_endpoint": "normalised response", "experimental_result": 105}
{"compound": "COCC1(CO)C(=O)C2CCN1CC2 (centres undefined) [Prima-1 Met] (1 nM)", "measured_endpoint": "normalised response", "experimental_result": 101}
{"compound": "O=C(Nc1cccnc1)N1CCC(Cc2cccc(Oc3ccc(C(F)(F)F)cn3)c2)CC1 [PF-3845] (1 nM)", "measured_endpoint": "normalised response", "experimental_result": 95.8}
{"compound": "c1ccc2c(CCNc3ccc(Nc4ccncc4)cc3)c[nH]c2c1 [Serdemetan] (1000 nM)", "measured_endpoint": "normalised response", "experimental_result": 114}
{"compound": "CCc1c2c(nc3ccc(OC(=O)N4CCC(N5CCCCC5)CC4)cc13)-c1cc3c(c(=O)n1C2)COC(=O)[C@]3(O)CC [Irinotecan] (1000 nM)", "measured_endpoint": "normalised response", "experimental_result": 109}

----------
system: SK-BR-3; assay: normalised viability (% of control), CellTiter-Blue; higher = more viable cells (about 100 = DMSO control); conditions: 1000 nM; incubation time: 72 h
normalised viability overview
measured_endpoint: normalised viability (%)

{"compound": "COc1cc(OC2CCN(C)CC2)ccc1Nc1ncc2c(n1)n(C1CCCC1)c(=O)n2C", "reading_unit": "%", "experimental_result": 86.8}
{"compound": "C=C1C[C@@H]2[C@H](CC[C@]3(C)C(=O)CC[C@@H]23)[C@@]2(C)C=CC(=O)C=C12", "reading_unit": "%", "experimental_result": 101}
{"compound": "Cc1ccc(NC(=O)c2ccc(CN3CCN(C)CC3)cc2)cc1Nc1nc(-c2cccnc2)cs1", "reading_unit": "%", "experimental_result": 102}
{"compound": "COCC1(CO)C(=O)C2CCN1CC2 (stereo unspecified)", "reading_unit": "%", "experimental_result": 101}
{"compound": "CC(C)C[C@@H](C(=O)N[C@H](C(=O)OC1CCCC1)c1ccccc1)[C@H](O)C(=O)NO", "reading_unit": "%", "experimental_result": 85.7}
{"compound": "NC(=O)c1ccc(I)c([N+](=O)[O-])c1", "reading_unit": "%", "experimental_result": 104}

----------
drug sensitivity score overview
system: Hs578T; assay: drug sensitivity score (DSS), CellTox Green (DSS (AUC-based score)); higher = stronger drug effect (viability inhibition or cytotoxicity); extreme values may be limits of the assay; conditions: incubation time: 72 h

{"molecule": "CCOC(=O)CCNc1cc(N2CCc3ccccc3CC2)nc(-c2ccccn2)n1 [GSK-J4]", "drug sensitivity score": 20.6}
{"molecule": "COCC[n+]1c2c(n(Cc3cnccn3)c1C)C(=O)c1ccccc1C2=O [YM155]", "drug sensitivity score": 5.6}
{"molecule": "O=C(Nc1ccncc1)C(=O)c1cn(Cc2ccc(Cl)cc2)c2ccccc12 [Indibulin]", "drug sensitivity score": 1.65}
{"molecule": "CC(C)C[C@@H](C(=O)N[C@H](C(=O)OC1CCCC1)c1ccccc1)[C@H](O)C(=O)NO [Tosedostat]", "drug sensitivity score": 1.64}
{"molecule": "Cc1[nH]c2ccccc2c1CCNCc1ccc(/C=C/C(=O)NO)cc1 [Panobinostat]", "drug sensitivity score": 18.5}
{"molecule": "Cc1cc(Nc2cc(CN3CCOCC3)c3nc(C)c(Cc4ccc(Cl)cc4F)n3n2)n[nH]1 [Gandotinib]", "drug sensitivity score": 7.9}
{"molecule": "Oc1ccc2c(c1)CC[C@H](c1ccccc1)[C@@H]2c1ccc(OCCN2CCCC2)cc1 [Lasofoxifene]", "drug sensitivity score": 3.26}
{"molecule": "Cc1ccc(NC(=O)c2ccc(CN3CCN(C)CC3)cc2)cc1Nc1nc(-c2cccnc2)cs1 [Masitinib]", "drug sensitivity score": 1.55}

----------
tested on: MDA-MB-453; test: normalised response (% of control), CellTox Green; higher = less cell death (100 = DMSO, 0 = benzethonium chloride kill control); settings: incubation time: 72 h

{"compound": "CNC(=O)c1cc(Oc2ccc(NC(=O)Nc3ccc(Cl)c(C(F)(F)F)c3)c(F)c2)ccn1 [Regorafenib] (10000 nM)", "reading_unit": "%", "normalised response": 98.3}
{"compound": "COc1cc2c(NC3CCN(C(C)C)CC3)nc(N3CCC(F)(F)CC3)nc2cc1OCCCN1CCCC1 [UNC0642] (10000 nM)", "reading_unit": "%", "normalised response": 43.1}
{"compound": "COc1cc(O)c2c(c1)/C=C/C[C@H](O)[C@H](O)C(=O)/C=C\\C[C@H](C)OC2=O [(5Z)-7-Oxozeaenol] (1000 nM)", "reading_unit": "%", "normalised response": 103}
{"compound": "NC(=O)c1ccc(I)c([N+](=O)[O-])c1 [Iniparib] (100 nM)", "reading_unit": "%", "normalised response": 99.1}
{"compound": "c1ccc2c(CCNc3ccc(Nc4ccncc4)cc3)c[nH]c2c1 [Serdemetan] (10000 nM)", "reading_unit": "%", "normalised response": 95.2}
{"compound": "COC(=O)c1ccc2c(c1)NC(=O)/C2=C(\\Nc1ccc(N(C)C(=O)CN2CCN(C)CC2)cc1)c1ccccc1 [Nintedanib] (100 nM)", "reading_unit": "%", "normalised response": 101}
{"compound": "O=C(/C=C/c1cccc(S(=O)(=O)Nc2ccccc2)c1)NO [Belinostat] (100 nM)", "reading_unit": "%", "normalised response": 100}
{"compound": "CNC(=O)c1cc(Oc2ccc(NC(=O)Nc3ccc(Cl)c(C(F)(F)F)c3)c(F)c2)ccn1 [Regorafenib] (1000 nM)", "reading_unit": "%", "normalised response": 107}
